Experiment: qHTS profiling for inhibitors of Plasmodium falciparum proliferation (AID 504749);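 note: 0% = DMSO vehicle and full inhibition = artemisinin control; nearly all actives have a fitted effect of over 60% in size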
Details: P. falciparum in erythrocytes, SYBR Green DNA, 72 h; at 28.7 µM (top of the series); parasite line A
Inconclusive results are not listed.
readout_kind: activity, negative = inhibition (%)

- Nc1ncn([C@@H]2O[C@H](CO)[C@@H](O)[C@H]2O)c(=O)n1: -1.52
- CN(C)CCN(Cc1cccs1)c1ccccn1: 5.46
- C[N+](C)(C)CCOC(=O)CCC(=O)OCC[N+](C)(C)C: 1.72
- CCN(CC)CCNC(=O)c1ccc(NC(C)=O)cc1: 9.9
- O=C(O)CCCCCCCC(=O)O: 9.73
- NC(=O)c1cn(Cc2c(F)cccc2F)nn1: 14.6

* * *

Assay: qHTS profiling for inhibitors of Plasmodium falciparum proliferation (AID 504749);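 note: 0% = DMSO vehicle and full inhibition = artemisinin control; nearly all actives have a fitted effect of over 60% in size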
Conditions: P. falciparum in erythrocytes, SYBR Green DNA, 72 h; at 28.7 µM (top of the series); parasite line A
Records with an inconclusive call do not appear.
Listed here are compounds together with their documented activity, negative = inhibition.
readout_kind: activity, negative = inhibition (%)

• NC/C=C/C(=O)O = 13.5
• C[C@H](CS)C(=O)N1CCC[C@H]1C(=O)O = -25.9
• CNCCC(Oc1ccccc1OC)c1ccccc1 (stereo not drawn) = 3.02
• COc1ccc([C@@H]2Sc3ccccc3N(CCN(C)C)C(=O)[C@@H]2OC(C)=O)cc1 = 3.17
• CCn1ccnc1CC1COc2ccccc2O1 (stereo not drawn) = 10.6
• NC(=Nc1ccccc1)Nc1ccccc1 = -14.1
• NS(=O)(=O)c1cc2c(cc1Cl)NC(C1CC3C=CC1C3)NS2(=O)=O (stereo not drawn) = 2.38
• NC(=O)c1ncn([C@@H]2O[C@H](CO)[C@@H](O)[C@H]2O)c1O = 9.25
• CC(N=C(NC#N)Nc1ccncc1)C(C)(C)C (stereo not drawn) = -3.66
• CCN1CCc2nc(N)oc2CC1 = 1.51
• C=CCc1ccccc1OCC(O)CNC(C)C (stereo not drawn) = -5.93
• CN=C(NC#N)NCCSCc1nc[nH]c1C = -4.42
• Cc1cc(C)c(/C=C2\C(=O)Nc3ccccc32)[nH]1 = 2.71

* * *

Molecular target: Arylsulfatase A (Homo sapiens) (UniProt P15289)
Sequence (P15289 whole entry, looked up): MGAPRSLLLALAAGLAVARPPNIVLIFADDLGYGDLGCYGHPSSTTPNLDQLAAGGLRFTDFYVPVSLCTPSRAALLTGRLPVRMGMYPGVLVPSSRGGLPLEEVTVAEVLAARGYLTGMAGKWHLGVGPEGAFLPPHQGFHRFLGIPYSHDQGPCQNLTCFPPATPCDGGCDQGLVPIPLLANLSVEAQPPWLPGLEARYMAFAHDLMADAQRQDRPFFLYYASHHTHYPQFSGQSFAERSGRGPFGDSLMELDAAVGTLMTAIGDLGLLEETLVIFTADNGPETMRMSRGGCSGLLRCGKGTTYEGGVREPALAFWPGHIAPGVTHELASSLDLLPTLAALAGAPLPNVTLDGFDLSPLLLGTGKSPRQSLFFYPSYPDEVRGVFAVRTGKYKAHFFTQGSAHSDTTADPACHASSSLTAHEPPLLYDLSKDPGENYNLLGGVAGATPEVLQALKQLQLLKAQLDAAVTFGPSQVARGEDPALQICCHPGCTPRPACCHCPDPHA
Experiment: qHTS screen for enhancers of Arylsulfatase A (ASA1): LOPAC Validation Assay (AID 720538)
Conditions: ASA enzyme activity, LOPAC qHTS enhancer assay; series mostly up to 57.5 µM
Records with an inconclusive call do not appear. Calls of active or inactive are those of the source. The call rests on the fitted dose curve; in most records, active means well fitted activation curve with a large enough effect; inconclusive means small, poorly fitted or top-dose-only effect; inactive means no such curve, though single readings can be large or run the other way.
readout_kind: outcome

- CC(=O)OC(C)C[N+](C)(C)C (stereo unspecified): inactive
- CN(C)CCOC(=O)COc1ccc(Cl)cc1: inactive
- COC(=O)C1=C(C)NC(C)=C(C(=O)OCCN(C)Cc2ccccc2)C1c1cccc([N+](=O)[O-])c1 (stereo unspecified): inactive
- COCCOC(=O)C1=C(C)NC(C)=C(C(=O)OC(C)C)C1c1cccc([N+](=O)[O-])c1 (stereo unspecified): inactive
- COc1ccc(CCN(C)CCCC(C#N)(c2cc(OC)c(OC)c(OC)c2)C(C)C)cc1OC (stereo unspecified): inactive
- NC(Cc1ccc(Cl)cc1)C(=O)O (stereo unspecified): inactive

* * *

Test: qHTS drug screen for cell cycle checkpoint inhibitors in PARPi-resistant BRCA-mutant ovarian cancer cell lines. (AID 1963452)
Settings: PEO1/OlaR viability, CellTiter-Glo luminescence, 96 h; measured here: PEO4 Z-AUC; stronger effect = lower value
Source text: Women's Malignancies Branch, Center for Cancer Research (CCR), National Cancer Institute (NCI), National Institutes of Health (NIH), Bethesda, MD Poly (ADP-ribose) polymerase inhibitors (PARPis) have changed the treatment paradigm in breast cancer gene (BRCA) - mutant high-grade serous ovarian carcinoma (HGSC). […] 6; Detection; Luminescence, PHERAstar (BMG Labtech) plate reader. […] 6. Luminescence readings were taken using PHERAstar (BMG Labtech). […]
Listed here are compounds together with their documented Z-AUC.
readout_kind: Z-AUC

• CC(C)COCC(CN(Cc1ccccc1)c1ccccc1)N1CCCC1 (centres undefined) = 0.389
• CCCN(CCC)C(=O)C(CCC(=O)O)NC(=O)c1ccccc1 (centres undefined) = 0.925
• Cc1cc(C)c(/C=C2\C(=O)Nc3ccccc32)[nH]1 = 0.161
• COc1ccc2c(c1OC)C(=O)O[C@@H]2[C@H]1c2c(cc3c(c2OC)OCO3)CCN1C = 0.499

* * *

Assay: Drug repurposing screens with cells derived from glioblastoma tumor samples (AID 1345199); note: % is set by controls: 0 for no effect and ±100 for the full control effect; nearly all actives have a fitted effect of over 40% in size
Details: GBM patient neurospheres viability, ATP luminescence, 48 h; at 45.9 µM (top of the series); tumour line D
Method: CD133+ cells were isolated from GBM patient biopsies and cultured as neurospheres. Neurospheres from four patients were used to screen the NCATS pharmaceutical collection (NPC) library of approved drugs and bioactive compounds. […] The neurospheres were incubated with drugs for 48 hours in 1536-well format, then assayed with an ATP content cell viability assay. […]
Inconclusive results are not listed.
Listed here are molecules together with their documented activity, negative = cell killing.
readout_kind: activity, negative = cell killing (%)

• CCN(CC)CCNC(=O)c1ccc(NC(C)=O)cc1 = 7.82
• C[N+](C)(C)CCOC(N)=O = -11.4
• Cc1scc2c1N(C(=O)CN1CCN(C)CC1)c1ccccc1NC2=O = 2.13
• CCn1cc(C(=O)O)c(=O)c2cc3c(cc21)OCO3 = -1.7
• CNCCC(Oc1ccccc1OC)c1ccccc1 (stereo unspecified) = -19.1
• O=C(CCNNC(=O)c1ccncc1)NCc1ccccc1 = -5.12
• C[C@]12C=CC(=O)C=C1CC[C@H]1[C@@H]3C[C@@H](O)[C@](O)(C(=O)CO)[C@@]3(C)C[C@H](O)[C@@]12F = -6.95
• O=C(O)CCCCCCCC(=O)O = -5.03
• NC(=O)N1c2ccccc2C=Cc2ccccc21 = -27.4
• C[C@]12CCC(=O)C=C1CC[C@@H]1[C@@H]2C(=O)C[C@@]2(C)[C@H]1CC[C@]2(O)C(=O)CO = -5.79
• CCCNC(C)C(=O)Nc1ccccc1C (stereo unspecified) = -8.5
• CN1CCN(CC(=O)N2c3ccccc3C(=O)Nc3cccnc32)CC1 = -4.29
• CCOC(=O)C1=C(C)NC(C)=C(C(=O)OC)C1c1cccc([N+](=O)[O-])c1 (stereo unspecified) = -28.4
• C#CCN(C)CCCOc1ccc(Cl)cc1Cl = -15.7
• Cc1ccc(/C(=C\CN2CCCC2)c2ccccn2)cc1 = -28.9
• Nc1c2c(nc3ccccc13)CCCC2O (stereo unspecified) = 4.03
• CCCOc1ccccc1-c1nc2n[nH]nc2c(=O)[nH]1 = -8.24
• Cc1nc2c([nH]1)c(=O)n(C)c(=O)n2Cc1ccco1 = -3.2
• CC(=O)OCC1=C(C(=O)O)N2C(=O)[C@@H](NC(=O)Cc3cccs3)[C@H]2SC1 = -7.52
• CC(C)(C)NCC(O)c1cc(O)cc(O)c1 (stereo unspecified) = -16.8
• CC(C)NCC(O)c1cc(O)cc(O)c1 (stereo unspecified) = 17.6
• O=C(O)CN(CCN(CC(=O)O)CC(=O)O)CCN(CC(=O)O)CC(=O)O = -0.113
• CC(C)NNC(=O)c1ccncc1 = -16.2
• CC(C)[N+](C)(CCOC(=O)C1c2ccccc2Oc2ccccc21)C(C)C = -14.8
• CCN1CCc2nc(N)oc2CC1 = -6.92
• NCCCNCCSP(=O)(O)O = -3.44
• CN(C)C(=O)Oc1cccc([N+](C)(C)C)c1 = 10.8
• CCN1CCC[C@H]1CNC(=O)c1c(O)c(Cl)cc(Cl)c1OC = 3.21
• CCN(Cc1ccncc1)C(=O)C(CO)c1ccccc1 (stereo unspecified) = -5.82
• Cc1ccc(Cl)c(Nc2ccccc2C(=O)O)c1Cl = -0.35
• CCCCCN(CCCCC)C(=O)C(CCC(=O)O)NC(=O)c1ccc(Cl)c(Cl)c1 (stereo unspecified) = -12.8
• CC(N=C(NC#N)Nc1ccncc1)C(C)(C)C (stereo unspecified) = -6.7
• NS(=O)(=O)c1cc2c(cc1Cl)NC(C1CC3C=CC1C3)NS2(=O)=O (stereo unspecified) = 7.03
• Brc1c(NC2=NCCN2)ccc2nccnc12 = -4.16
• Cc1nnc(SCC2=C(C(=O)O)N3C(=O)[C@@H](NC(=O)Cn4cnnn4)[C@H]3SC2)s1 = -8.75
• CN=C(NC#N)NCCSCc1nc[nH]c1C = -15.2
• c1ccc2c(c1)CCCC2C1=NCCN1 (stereo unspecified) = 3.62
• NC(=O)c1ncn([C@@H]2O[C@H](CO)[C@@H](O)[C@H]2O)c1O = 11.4
• CCCN(CCC)C(=O)C(CCC(=O)O)NC(=O)c1ccccc1 (stereo unspecified) = -1.59
• C=CCc1ccccc1OCC(O)CNC(C)C (stereo unspecified) = -4.74
• CCn1ccnc1CC1COc2ccccc2O1 (stereo unspecified) = -4.46
• CCOC(=O)c1cnc2c(cnn2CC)c1NN=C(C)C = -28.3
• CC(=O)[C@@]1(O)CC[C@H]2[C@@H]3CCC4=CC(=O)CC[C@]4(C)[C@H]3CC[C@@]21C = -29.7
• NC(Cc1ccc(Cl)cc1)C(=O)O (stereo unspecified) = -0.449
• NC/C=C/C(=O)O = -13.4
• C[C@]12CCC(=O)C=C1CC[C@@H]1[C@@H]2CC[C@@]2(C)[C@H]1CC[C@]2(O)C(=O)CO = 0.984
